Test system: P94_40
EXPERIMENT DESCRIPTION: qHTS profiling for inhibitors of Plasmodium falciparum proliferation (AID 504749); note: nearly all actives have a fitted effect of over 60% in size
MEASUREMENT CONTEXT: P. falciparum in erythrocytes, SYBR Green DNA, 72 h; series mostly up to 28.7 µM
Inconclusive results are not listed. Active and inactive are the calls of the source. Calls come from the whole dose curve; as a rule, active = well fitted inhibition curve with a large enough effect; inconclusive = small, poorly fitted or top-dose-only effect; inactive = flat fitted curve, though single readings scatter.
Possible outcomes: active, inactive

• CCCOC(=O)c1ccccc1O = inactive
• CC(C)(Oc1ccc(C2CCCc3ccccc32)cc1)C(=O)O (stereo not drawn) = inactive
• COC(=O)c1ccccc1O = inactive
• Cc1c(Cl)cccc1Nc1ncccc1C(=O)O = inactive
• FCOC(C(F)(F)F)C(F)(F)F = inactive
• COC(=O)C(CN)c1c[nH]c2ccc(OC)cc12 (stereo not drawn) = inactive
• COc1cc(NCCCC(C)N)c2ncccc2c1 (stereo not drawn) = active
• COc1ccc2nc(NC(=O)Nc3ccccc3)sc2c1 = inactive
• CCCCO = inactive
• CC/C=C\C/C=C\C/C=C\CCCCCCCC(=O)O = inactive
• COC1=C(OC)C(=O)C(C/C=C(\C)CC/C=C(\C)CC/C=C(\C)CC/C=C(\C)CC/C=C(\C)CC/C=C(\C)CC/C=C(\C)CC/C=C(\C)CC/C=C(\C)CCC=C(C)C)=C(C)C1=O = inactive
• OCC(O)CO = inactive
• CCOC(=S)SSC(=S)OCC = inactive

###

Tested on: CP335
EXPERIMENT DESCRIPTION: qHTS profiling for inhibitors of Plasmodium falciparum proliferation (AID 504749); note: nearly all actives have a fitted effect of over 60% in size
MEASUREMENT CONTEXT: P. falciparum in erythrocytes, SYBR Green DNA, 72 h; series mostly up to 28.7 µM
Method: NIH National Institute of Allergy and Infectious Diseases [NIAID] NIH Chemical Genomics Center [NCGC] […] Because mature erythrocytes lack DNA, only Plasmodium-derived DNA is detected. NCGC Assay Protocol Summary: The SYBR Green viability assay was adapted from a method described previously (Plouffe et al., 2008). […] The following morning, fluorescence intensity at 485(14) nm excitation and 535(25) nm emission wavelengths was measured on an EnVision (Perkin Elmer) plate reader. […]
Records with an inconclusive call do not appear. Active and inactive are the calls of the source. The call rests on the fitted dose curve; in most records, active means well fitted inhibition curve with a large enough effect; inconclusive means small, poorly fitted or top-dose-only effect; inactive means flat fitted curve, though single readings scatter.
Classes used: yes (1) = active, no (0) = inactive

* S=C1SCN(Cc2ccccc2)CN1Cc1ccccc1 | no (0)
* C=C(C)C1CC=C(C)CC1 (configuration not stated) | no (0)
* COc1ccc(C(=O)CCC(=O)O)c2ccccc12 | no (0)
* COc1cc2c(cc1OC)[C@@H](Cc1cc(OC)c(OC)c(OC)c1)[N+](C)(CCCOC(=O)CC/C=C/CCC(=O)OCCC[N+]1(C)CCc3cc(OC)c(OC)cc3[C@H]1Cc1cc(OC)c(OC)c(OC)c1)CC2 (some centres not stated) | no (0)
* CCCCCCCCCCCCOCCCN | no (0)
* CC1=CC(=C(c2ccc(N)cc2)c2ccc(N)cc2)C=CC1=N | yes (1)
* CCCOC(=O)c1ccccc1O | no (0)
* OC/C=C/c1ccccc1 | no (0)
* CC(C)=CCC/C(C)=C/CC/C(C)=C/CC/C=C(\C)CC/C=C(\C)CCC=C(C)C | no (0)
* CC(=O)c1ccc2c(c1)N(CCCN1CCN(CCO)CC1)c1ccccc1S2 | yes (1)
* O=P(O)(O)O | no (0)
* CCN(CC)C(=O)c1cccnc1 | no (0)
* CNC(=O)C[C@@H](N)C(=O)N[C@@H](C(=O)N[C@@H]1C(=O)N2[C@@H]1SC(C)(C)[C@@H]2C(=O)O)c1ccc(O)cc1 | no (0)
* CC1(O)CCC(C(C)(C)O)CC1 (configuration not stated) | no (0)
* COc1cc(C)c(/C=C/C(C)=C/C=C/C(C)=C/C(=O)O)c(C)c1C | no (0)
* O=C(NNCS(=O)(=O)O)c1ccncc1 | no (0)
* CO/N=C(/C(=O)N[C@@H]1C(=O)N2C(C(=O)O)=C(COC(N)=O)CS[C@H]12)c1ccco1 | no (0)
* COC1=C(OC)C(=O)C(C/C=C(\C)CC/C=C(\C)CC/C=C(\C)CC/C=C(\C)CC/C=C(\C)CC/C=C(\C)CC/C=C(\C)CC/C=C(\C)CC/C=C(\C)CCC=C(C)C)=C(C)C1=O | no (0)
* NC(=S)NS(=O)(=O)c1ccc(N)cc1 | no (0)
* CC(C)[C@H](N)C(=O)OCC(CO)OCn1cnc2c(=O)[nH]c(N)nc21 (some centres not stated) | no (0)
* CN(C)CCCSc1ccccc1NC(=O)/C=C/c1ccccc1 | no (0)
* CC(C)C1=CC2=CC[C@@H]3[C@](C)(CCC[C@@]3(C)C(=O)O)[C@H]2CC1 | no (0)
* CC(CCc1ccc(O)cc1)NCC(O)c1ccc(O)cc1 (configuration not stated) | no (0)
* C[Se]CC[C@H](N)C(=O)O | no (0)
* CCC(C(=O)NC(N)=O)c1ccccc1 (configuration not stated) | no (0)
* C=CCN1CCCC1CNC(=O)c1cc(S(N)(=O)=O)cc(OC)c1OC (configuration not stated) | no (0)
* c1ccc2c(c1)OCC(CN1CCCCC1)O2 (configuration not stated) | no (0)
* CCSc1ccc2c(c1)N(CCCN1CCN(C)CC1)c1ccccc1S2 | no (0)
* COc1ccc(-c2noc(CC(=O)O)c2-c2ccc(OC)cc2)cc1 | no (0)
* O=P(O)(O)OC[C@H](O)CO | no (0)
* Cc1c(Cl)cccc1Nc1ncccc1C(=O)O | no (0)
* CN(C)CCOc1ccc(/C(=C(/CCCl)c2ccccc2)c2ccccc2)cc1 | no (0)
* CC(C)c1ncc([N+](=O)[O-])n1C | no (0)
* CCCCC[C@H](O)/C=C/[C@H]1[C@H](O)CC(=O)[C@@H]1C/C=C\CCCC(=O)O | no (0)
* C=CCCCCCCCCC(=O)OC | no (0)
* CC(C)(COP(=O)(O)OP(=O)(O)OC[C@H]1O[C@@H](n2cnc3c(N)ncnc32)[C@H](O)[C@@H]1OP(=O)(O)O)C(O)C(=O)NCCC(=O)NCCS (some centres not stated) | no (0)
* CN(CCO)CC(O)Cn1cnc2c1c(=O)n(C)c(=O)n2C (configuration not stated) (tested in a mixture with another compound) | no (0)
* FC(F)(F)C(F)(F)C(F)(F)C(F)(F)C(F)(F)C(F)(F)F | no (0)
* CC1CC(O)CC(C)(C)C1 (configuration not stated) | no (0)
* CC(C)(C)CC(C)(C)c1ccc(OCCO)cc1 | no (0)
* CC(C)NCC(O)COc1ccccc1-n1cccc1 (configuration not stated) | no (0)
* OC[C@H]1O[C@@H]2O[C@H]3[C@H](O)[C@@H](O)[C@@H](O[C@H]4[C@H](O)[C@@H](O)[C@@H](O[C@H]5[C@H](O)[C@@H](O)[C@@H](O[C@H]6[C@H](O)[C@@H](O)[C@@H](O[C@H]7[C@H](O)[C@@H](O)[C@@H](O[C@H]1[C@H](O)[C@H]2O)O[C@@H]7CO)O[C@@H]6CO)O[C@@H]5CO)O[C@@H]4CO)O[C@@H]3CO | no (0)
